Numbers sourced from ChEMBL document CHEMBL1938272.

- measuredOn: Aromatase (Homo sapiens, UniProt P11511)
- experimentalParameters: 2 h, read-out: Imax
# thresholds on inhibition at 50 µM define classes: group A = under 40%, group B = from 40% up to 50%, group C = 50% and over

// known answers, use as guide
1. Nc1ccc(-c2nsc(-c3ccc(N)cc3)n2)cc1: group C
2. c1cc(-c2nsc(-c3ccncc3)n2)ccn1: group C
3. c1cncc(-c2nsc(-c3cccnc3)n2)c1: group C
4. Ic1ccc(-c2nsc(-c3ccc(I)cc3)n2)cc1: group A

Alright, here's another molecule for you.
Could you place `Cc1ccc(Cl)cc1-c1nsc(-c2cc(Cl)ccc2C)n1` in its proper category? Many thanks.
group A

====

- measuredOn: UniProtKB Q64669
- measurementNotes: Induction of QR1 activity in mouse TAOc1 mutant Hepa cells using MTT as substrate by spectrophotometry
- Assay type: cell-based
Kindly state CD for each of the entries shown.
Give bare numbers, in µM.

Reference set, count: 3
1. Ic1ccccc1-c1nsc(-c2ccccc2I)n1: 6.3
2. Clc1ccc(Cl)c(-c2nsc(-c3cc(Cl)ccc3Cl)n2)c1: 41
3. Cc1ccc(Cl)cc1-c1nsc(-c2cc(Cl)ccc2C)n1: 2

I have 5 compounds here; please give me CD for each one.
1. Cc1c(Cl)cccc1-c1nsc(-c2cccc(Cl)c2C)n1
2. Cc1cc(Cl)ccc1-c1nsc(-c2ccc(Cl)cc2C)n1
3. Brc1cccc(-c2nsc(-c3cccc(Br)c3)n2)c1
4. Clc1ccccc1-c1nsc(-c2ccccc2Cl)n1
5. c1ccc(-c2nsc(-c3ccccc3)n2)cc1

48.7
3.8
2.5
44.3
18.6

====

- measuredOn: NAD(P)H dehydrogenase [quinone] 1 (Mus musculus) (UniProt Q64669)
- Sequence (Q64669 whole entry): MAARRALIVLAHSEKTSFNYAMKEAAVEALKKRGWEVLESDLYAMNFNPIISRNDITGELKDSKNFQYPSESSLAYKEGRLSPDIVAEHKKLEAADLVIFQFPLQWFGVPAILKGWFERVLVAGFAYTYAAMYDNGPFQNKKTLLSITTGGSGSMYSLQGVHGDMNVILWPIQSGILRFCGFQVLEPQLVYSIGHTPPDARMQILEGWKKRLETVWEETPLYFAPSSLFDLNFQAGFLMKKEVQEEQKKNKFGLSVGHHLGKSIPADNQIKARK
- measurementNotes: Induction of QR1-mediated cytoprotective activity in mouse TAOc1 mutant Hepa cells at 50 uM assessed as cell survival
- Assay type: cell-based
quantity: Survival (%)
Give bare numbers, in %.

Reference set, count: 2
1. c1cncc(-c2nsc(-c3cccnc3)n2)c1: 71.6
2. Oc1ccc(/C=C/c2cc(O)cc(O)c2)cc1: 86.3

I have 7 compounds here; please give me Survival for each one.
1. Cc1c(Cl)cccc1-c1nsc(-c2cccc(Cl)c2C)n1
2. CC(C)(C)c1ccc(-c2nsc(-c3ccc(C(C)(C)C)cc3)n2)cc1
3. COc1cccc(-c2nsc(-c3cccc(OC)c3)n2)c1
4. Cc1cccc(-c2nsc(-c3cccc(C)c3)n2)c1
5. Oc1ccc(/C=C\c2cc(O)cc(O)c2)cc1
6. c1ccc2cc(-c3nsc(-c4ccc5ccccc5c4)n3)ccc2c1
7. Fc1ccc(-c2nsc(-c3ccc(F)cc3)n2)cc1

1. 68
2. 74.1
3. 76.3
4. 94.9
5. 100
6. 96.9
7. 83

I have 3 compounds here; please give me Survival for each one.
1. Clc1ccccc1-c1nsc(-c2ccccc2Cl)n1
2. Fc1ccccc1-c1nsc(-c2ccccc2F)n1
3. Ic1ccccc1-c1nsc(-c2ccccc2I)n1

100
82.5
69.8

====

- measuredOn: NAD(P)H dehydrogenase [quinone] 1 (Mus musculus)
- measurementNotes: Induction of QR1-mediated cytoprotective activity in mouse BPrc1 cells at 50 uM assessed as cell survival
- Type: cell-based
# label = Met if Survival >= 90% else Not met

// known answers, use as guide
1. Fc1ccc(-c2nsc(-c3ccc(F)cc3)n2)cc1: Not met
2. Clc1cccc(-c2nsc(-c3cccc(Cl)c3Cl)n2)c1Cl: Not met
3. Oc1cccc(-c2nsc(-c3cccc(O)c3)n2)c1: Met
4. Cc1cccc(-c2nsc(-c3cccc(C)c3)n2)c1: Met
5. COc1cccc(-c2nsc(-c3cccc(OC)c3)n2)c1: Met

Determine whether this molecule has Survival no lower than 90%: `Oc1ccc(/C=C\c2cc(O)cc(O)c2)cc1`
Not met

Determine whether this molecule has Survival no lower than 90%: `Ic1cccc(-c2nsc(-c3cccc(I)c3)n2)c1`
Not met

Determine whether this molecule has Survival no lower than 90%: `Brc1ccc(-c2nsc(-c3ccc(Br)cc3)n2)cc1`
Not met

====

- measuredOn: NAD(P)H dehydrogenase [quinone] 1 (Mus musculus) (UniProt Q64669)
- measurementNotes: Induction of QR1-mediated cytoprotective activity in mouse Hepa-1c1c7 cells at 50 uM assessed as cell survival
- Type: cell-based
# label = Fulfilled if Survival >= 80% else Not fulfilled

1. Oc1ccc(-c2nsc(-c3ccc(O)cc3)n2)cc1: Not fulfilled
2. Ic1ccc(-c2nsc(-c3ccc(I)cc3)n2)cc1: Fulfilled
3. Clc1ccccc1-c1nsc(-c2ccccc2Cl)n1: Not fulfilled
4. Cc1ccc(Cl)cc1-c1nsc(-c2cc(Cl)ccc2C)n1: Not fulfilled
5. Oc1ccc(/C=C\c2cc(O)cc(O)c2)cc1: Fulfilled
6. CC(C)(C)c1ccc(-c2nsc(-c3ccc(C(C)(C)C)cc3)n2)cc1: Not fulfilled
7. FC(F)(F)c1ccc(-c2nsc(-c3ccc(C(F)(F)F)cc3)n2)cc1: Fulfilled
8. Cc1cc(Br)ccc1-c1nsc(-c2ccc(Br)cc2C)n1: Not fulfilled
9. Fc1ccccc1-c1nsc(-c2ccccc2F)n1: Fulfilled
10. Fc1ccc(-c2nsc(-c3ccc(F)cc3)n2)cc1: Fulfilled

Determine whether this compound has Survival no lower than 80%: `Ic1cccc(-c2nsc(-c3cccc(I)c3)n2)c1`
Fulfilled

Determine whether this compound has Survival no lower than 80%: `Oc1ccc(/C=C/c2cc(O)cc(O)c2)cc1`
Fulfilled

====

- measuredOn: Aromatase (Homo sapiens, UniProt P11511)
- Sequence (P11511 whole entry): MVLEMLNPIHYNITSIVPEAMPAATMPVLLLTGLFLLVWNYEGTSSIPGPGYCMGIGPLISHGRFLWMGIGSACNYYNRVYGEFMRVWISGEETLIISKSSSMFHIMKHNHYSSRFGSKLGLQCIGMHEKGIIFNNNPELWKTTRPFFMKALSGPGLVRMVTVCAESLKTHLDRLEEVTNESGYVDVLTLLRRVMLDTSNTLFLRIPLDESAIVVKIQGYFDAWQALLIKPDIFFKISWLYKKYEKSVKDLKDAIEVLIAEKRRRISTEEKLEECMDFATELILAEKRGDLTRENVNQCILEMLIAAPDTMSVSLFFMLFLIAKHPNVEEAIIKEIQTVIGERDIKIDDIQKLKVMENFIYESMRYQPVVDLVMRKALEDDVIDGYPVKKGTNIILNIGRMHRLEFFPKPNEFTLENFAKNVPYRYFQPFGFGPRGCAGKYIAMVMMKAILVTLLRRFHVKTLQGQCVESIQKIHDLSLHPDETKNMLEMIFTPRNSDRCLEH
- experimentalParameters: 2 h, read-out: Imax
Kindly state inhibition at 50 µM for each of the entries shown.
Entry format: amount then unit.

Reference set, count: 4
1) Clc1ccc(-c2nsc(-c3ccc(Cl)cc3)n2)cc1: 9.7%
2) Cc1c(Cl)cccc1-c1nsc(-c2cccc(Cl)c2C)n1: 19.8%
3) N#Cc1ccc(-c2nsc(-c3ccc(C#N)cc3)n2)cc1: 38.5%
4) COc1ccc(-c2nsc(-c3ccc(OC)cc3)n2)cc1: 11.1%

I have 3 compounds here; please give me inhibition at 50 µM for each one.
1. Clc1ccccc1-c1nsc(-c2ccccc2Cl)n1
2. FC(F)(F)c1ccccc1-c1nsc(-c2ccccc2C(F)(F)F)n1
3. Clc1ccc(-c2nsc(-c3ccc(Cl)cc3Cl)n2)c(Cl)c1

49.7%
21.6%
40.3%

====

Kindly state inhibition for each of the entries shown.
- Test system: Radical scavenging activity
- measurementNotes: Antioxidant activity assessed as DPPH free radical scavenging activity at 400 uM after 30 mins by spectrophotometry
- Type: functional
Give bare numbers, in %.

Reference set, count: 10
1. COc1cccc(-c2nsc(-c3cccc(OC)c3)n2)c1: -2.1
2. c1ccc2cc(-c3nsc(-c4ccc5ccccc5c4)n3)ccc2c1: 1.1
3. Ic1cccc(-c2nsc(-c3cccc(I)c3)n2)c1: 14.3
4. Brc1ccc(-c2nsc(-c3ccc(Br)cc3)n2)cc1: 0.8
5. Clc1ccc(-c2nsc(-c3ccc(Cl)c(Cl)c3)n2)cc1Cl: 9.6
6. O=[N+]([O-])c1ccc(-c2nsc(-c3ccc([N+](=O)[O-])cc3)n2)cc1: 7.3
7. Cc1cccc(-c2nsc(-c3cccc(C)c3)n2)c1: 1.9
8. N#Cc1ccc(-c2nsc(-c3ccc(C#N)cc3)n2)cc1: 6
9. Cc1cc(Cl)ccc1-c1nsc(-c2ccc(Cl)cc2C)n1: 3.7
10. Cc1ccc(Cl)cc1-c1nsc(-c2cc(Cl)ccc2C)n1: 1.3

I have 7 compounds here; please give me inhibition for each one.
1. Cc1c(Cl)cccc1-c1nsc(-c2cccc(Cl)c2C)n1
2. COc1ccc(-c2nsc(-c3ccc(OC)cc3)n2)cc1
3. Clc1ccc(Cl)c(-c2nsc(-c3cc(Cl)ccc3Cl)n2)c1
4. Clc1ccccc1-c1nsc(-c2ccccc2Cl)n1
5. Fc1cccc(-c2nsc(-c3cccc(F)c3)n2)c1
6. Cc1ccc(-c2nsc(-c3ccc(C)cc3)n2)cc1
7. Clc1ccc(-c2nsc(-c3ccc(Cl)cc3)n2)cc1

[2.3, 3.1, 1, 2.8, 1.3, 7.2, 2.7]

I have 4 compounds here; please give me inhibition for each one.
1. Clc1cccc(-c2nsc(-c3cccc(Cl)c3Cl)n2)c1Cl
2. Fc1ccccc1-c1nsc(-c2ccccc2F)n1
3. CCCCc1ccc(-c2nsc(-c3ccc(CCCC)cc3)n2)cc1
4. Clc1ccc(-c2nsc(-c3ccc(Cl)cc3Cl)n2)c(Cl)c1

[11.1, 3.8, 2.1, 2.9]

Can you share its inhibition? I mean this compound: `CC(C)(C)c1ccc(-c2nsc(-c3ccc(C(C)(C)C)cc3)n2)cc1`
2.9
